// provenance: the NIST ThermoML archive (doi:10.1016/j.jct.2009.07.006)

conditions: 328.15 K; 34550 kPa; Liquid; Vibrating tube method
Metric Name: mass density (kg/m3)

[[record]]
smiles_code = "Cc1ccncc1"
experimental_result = 946.1

[[record]]
smiles_code = "c1ccncc1"
experimental_result = 972.3

[[record]]
smiles_code = "Cc1cccnc1"
experimental_result = 948.2

[[record]]
smiles_code = "Cc1ccccn1"
experimental_result = 936.8


###

settings: 298.15 K; 24420 kPa; Liquid; Vibrating tube method
Metric Name: mass density (kg/m3)

[[record]]
compound = "c1ccncc1 [pyridine]"
unit_annotation = "kg/m3"
experimental_result = 993.3

[[record]]
compound = "Cc1ccncc1 [4-methylpyridine]"
unit_annotation = "kg/m3"
experimental_result = 964.6

[[record]]
compound = "Cc1ccccn1 [2-methylpyridine]"
unit_annotation = "kg/m3"
experimental_result = 955.4

[[record]]
compound = "Cc1cccnc1 [3-methylpyridine]"
unit_annotation = "kg/m3"
experimental_result = 966.7


###

settings: 318.15 K; 36580 kPa; Liquid; Vibrating tube method
Metric Name: mass density (kg/m3)

[[record]]
smiles_code = "c1ccncc1"
experimental_result = 982.6

[[record]]
smiles_code = "Cc1ccncc1"
experimental_result = 955.2

[[record]]
smiles_code = "Cc1cccnc1"
experimental_result = 957.4

[[record]]
smiles_code = "Cc1ccccn1"
experimental_result = 946.1


###

conditions: 298.15 K; 8210 kPa; Liquid; Vibrating tube method
Metric Name: mass density (kg/m3)

[[record]]
compound = "Cc1ccncc1 [4-methylpyridine]"
metric_name = "mass density"
unit_annotation = "kg/m3"
experimental_result = 955.1

[[record]]
compound = "c1ccncc1 [pyridine]"
metric_name = "mass density"
unit_annotation = "kg/m3"
experimental_result = 983.2

[[record]]
compound = "Cc1ccccn1 [2-methylpyridine]"
metric_name = "mass density"
unit_annotation = "kg/m3"
experimental_result = 945.3

[[record]]
compound = "Cc1cccnc1 [3-methylpyridine]"
metric_name = "mass density"
unit_annotation = "kg/m3"
experimental_result = 957.1


###

conditions: 298.15 K; 38600 kPa; Liquid; Vibrating tube method
Metric Name: mass density (kg/m3)

[[record]]
smiles_code = "Cc1cccnc1"
experimental_result = 974.5

[[record]]
smiles_code = "Cc1ccccn1"
experimental_result = 963.5

[[record]]
smiles_code = "Cc1ccncc1"
experimental_result = 972.3

[[record]]
smiles_code = "c1ccncc1"
experimental_result = 1001.4


###

details: 298.15 K; 20370 kPa; Liquid; Vibrating tube method
Metric Name: mass density (kg/m3)

[[record]]
smiles_code = "c1ccncc1"
experimental_result = 990.8

[[record]]
smiles_code = "Cc1ccccn1"
experimental_result = 953

[[record]]
smiles_code = "Cc1cccnc1"
experimental_result = 964.4

[[record]]
smiles_code = "Cc1ccncc1"
experimental_result = 962.3


###

conditions: 318.15 K; 24420 kPa; Liquid; Vibrating tube method
Metric Name: mass density (kg/m3)

[[record]]
smiles_code = "Cc1cccnc1"
metric_name = "mass density"
experimental_result = 950.1

[[record]]
smiles_code = "Cc1ccncc1"
metric_name = "mass density"
experimental_result = 948

[[record]]
smiles_code = "c1ccncc1"
metric_name = "mass density"
experimental_result = 974.9

[[record]]
smiles_code = "Cc1ccccn1"
metric_name = "mass density"
experimental_result = 938.5

